All values here come from patent US20260176249A1.

Imax values for the compounds below.
target_or_test_system: PLK1 kinase (Homo sapiens)
Construct: purchased Carnabio (Carna Biosciences) 05-157
Sequence (P53350 whole entry): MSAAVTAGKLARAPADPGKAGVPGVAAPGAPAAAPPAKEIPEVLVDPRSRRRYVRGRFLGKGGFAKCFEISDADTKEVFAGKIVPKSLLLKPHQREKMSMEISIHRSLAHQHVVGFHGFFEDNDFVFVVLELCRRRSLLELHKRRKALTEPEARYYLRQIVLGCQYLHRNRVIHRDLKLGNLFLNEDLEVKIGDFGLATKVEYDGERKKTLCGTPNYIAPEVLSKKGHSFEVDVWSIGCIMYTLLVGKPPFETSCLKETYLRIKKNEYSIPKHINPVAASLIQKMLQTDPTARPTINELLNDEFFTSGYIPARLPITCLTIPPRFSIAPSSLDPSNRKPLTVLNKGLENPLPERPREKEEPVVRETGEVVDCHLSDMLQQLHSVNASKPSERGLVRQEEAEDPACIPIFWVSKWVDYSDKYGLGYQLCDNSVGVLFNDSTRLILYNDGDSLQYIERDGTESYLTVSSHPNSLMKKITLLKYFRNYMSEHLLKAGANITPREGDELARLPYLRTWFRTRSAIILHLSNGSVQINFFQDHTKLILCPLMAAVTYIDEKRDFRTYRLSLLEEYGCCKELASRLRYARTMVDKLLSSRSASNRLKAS
assay_protocol: Inhibitory activity on PLK1 kinase
Format: biochemical
test_conditions: maximum effect caused by the compound at the test concentration

>  <smiles_input>
CN1CCN(c2ccc(OCC(F)(F)F)c(Nc3ncc4c(n3)-c3c(c(C(N)=O)nn3CCO)CC4)c2)CC1

>  <measured_result>
99.48%

$$$$
>  <smiles_input>
CN1CCN(c2ccc(OC(F)(F)F)c(Nc3ncc4c(n3)-c3c(c(C(=O)NO)nn3CCO)CC4)c2)CC1

>  <measured_result>
99.92%

$$$$
>  <smiles_input>
CN1CCN(c2ccc(OC(F)(F)F)c(Nc3ncc4c(n3)-c3c(c(C(=O)NOCCO)nn3C)CC4)c2)CC1

>  <measured_result>
99.65%

$$$$

Would you kindly look at the next entry?
// recorded Imax for CN1CCN(c2ccc(OC(F)(F)F)c(Nc3ncc4c(n3)-c3c(c(C(=O)NO)nn3CCF)CC4)c2)CC1 : 99.97%

----------
assay_protocol: Metabolic stability in rat liver microsomes
Format: in vitro ADME
test_conditions: pH 7.4
property_name: CLint scaled at 1 µM (mL/min/kg)
The reply should contain only the number, in mL/min/kg.

Documented CLint scaled at 1 µM of CN1CCN(c2ccc(OC(F)(F)F)c(Nc3ncc4ccc5c(C(=O)NO)nn(CCO)c5c4n3)c2)CC1 : 127

----------
assay_protocol: Metabolic stability in rat liver microsomes
Format: in vitro ADME
test_conditions: rat, pH 7.4
We begin with a simple list: items and their reported half-life at 1 µM.
Just the number please, in min, no unit attached.

>  <smiles_input>
CN1CCN(c2ccc(OC(F)(F)F)c(Nc3ncc4c(n3)-c3c(c(C(=O)NNC(N)=O)nn3C)CC4)c2)CC1

>  <scale_unit>
min

>  <half-life at 1 µM>
16.3

$$$$
>  <smiles_input>
CN1CCN(c2ccc(OC(F)(F)F)c(Nc3ncc4ccc5c(C(N)=O)nn(C)c5c4n3)c2)CC1

>  <scale_unit>
min

>  <half-life at 1 µM>
4.94

$$$$
>  <smiles_input>
Cn1nc(C(N)=O)c2c1-c1nc(Nc3cc(N4CCN(CCO)CC4)ccc3OC(F)(F)F)ncc1CC2

>  <scale_unit>
min

>  <half-life at 1 µM>
26.2

$$$$

Entry CN1CCN(c2ccc(OC(F)(F)F)c(Nc3ncc4c(n3)-c3c(c(C(=O)NN)nn3CCO)CC4)c2)CC1 ; half-life at 1 µM = 33.5

For this compound ( CN1CCN(c2ccc(OC(F)(F)F)c(Nc3ncc4c(n3)-c3c(c(C(N)=O)cn3CCO)CC4)c2)CC1 ), measured half-life at 1 µM is 24.3

----------
assay_protocol: Metabolic stability in mouse liver microsomes
Format: in vitro ADME
property_name: Clearance rate

Sample records with Clearance rate:
>  <compound>
CN1CCN(c2ccc(OC(F)(F)F)c(Nc3ncc4ccc5c(C(N)=O)nn(C)c5c4n3)c2)CC1

>  <Clearance rate>
High

$$$$
>  <compound>
CN1CCN(c2ccc(OC(F)(F)F)c(Nc3ncc4ccc5c(C(=O)NO)nn(CCO)c5c4n3)c2)CC1

>  <Clearance rate>
Medium

$$$$
>  <compound>
Cn1nc(C(N)=O)c2ccc3cnc(Nc4cc(N5CCN(CCO)CC5)ccc4OC(F)(F)F)nc3c21

>  <Clearance rate>
Medium

$$$$
>  <compound>
CN1CCN(c2ccc(OC(F)(F)F)c(Nc3ncc4c(n3)-c3c(c(C(N)=O)nn3CCC#N)CC4)c2)CC1

>  <Clearance rate>
High

$$$$
>  <compound>
CN1CCN(c2ccc(OC(F)(F)F)c(Nc3ncc4c(n3)-c3c(c(C(=O)NN)nn3CCO)CC4)c2)CC1

>  <Clearance rate>
Medium

$$$$

# Clearance rate (compound: Cn1nc(C(N)=O)c2c1-c1nc(Nc3cc(N4CCN(CCO)CC4)ccc3OC(F)(F)F)ncc1CC2 ) is High

For CN1CCN(c2ccc(OC(F)(F)F)c(Nc3ncc4c(n3)-c3c(c(C(N)=O)nn3CCO)CC4)c2)CC1 [Onvansertib, reference compound] the compound record lists Clearance rate as Medium

Clearance rate reading for CN1CCN(c2ccc(OC(F)(F)F)c(Nc3ncc4c(n3)-c3c(c(C(=O)NNC(N)=O)nn3C)CC4)c2)CC1 : Medium

The compound CN1CCN(c2ccc(OC(F)(F)F)c(Nc3ncc4c(n3)-c3c(c(C(=O)NO)nn3CCF)CC4)c2)CC1 showed Clearance rate equal to High

# Clearance rate (compound: CN1CCN(c2ccc(OCC(F)(F)F)c(Nc3ncc4c(n3)-c3c(c(C(N)=O)nn3CCO)CC4)c2)CC1 ) is Medium

Measured Clearance rate, CCc1sc(C(N)=O)c2c1-c1nc(Nc3cc(N4CCN(C)CC4)ccc3OC(F)(F)F)ncc1CC2 : High

Notebook: CN1CCN(c2ccc(OC(F)(F)F)c(Nc3ncc4ccc5c(C(N)=O)nn(CCF)c5c4n3)c2)CC1 , Clearance rate read as High

// field: Clearance rate; key: CN1CCN(c2ccc(OC(F)(F)F)c(Nc3ncc4c(n3)-c3c(c(C(N)=O)cn3CCO)CC4)c2)CC1 ; value = Medium
